B1: Azoarcus group I ribozyme (parent)
chain: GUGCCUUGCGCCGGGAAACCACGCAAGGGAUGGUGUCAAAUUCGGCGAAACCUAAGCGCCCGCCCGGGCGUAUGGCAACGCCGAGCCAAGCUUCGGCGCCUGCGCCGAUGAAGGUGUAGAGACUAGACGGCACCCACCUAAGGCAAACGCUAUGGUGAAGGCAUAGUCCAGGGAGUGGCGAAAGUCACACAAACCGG

variants of: B1; experiment: reverse-splicing fitness (ratio to wild type); higher = more active; in vitro selection; Mg2+ level not given
# binarize reverse-splicing fitness: threshold 0.008 inclusive, high side Condition met, low side Condition not met

{"variant-name": "C82A A111U A120U C150A C169U U176C", "group-label": "Condition not met"}
{"variant-name": "C82A A111U A120U C150G C169U U176A", "group-label": "Condition not met"}
{"variant-name": "A120U A145C C150G U176G", "group-label": "Condition met"}
{"variant-name": "C82U A120U A145U C150A C169U U176C", "group-label": "Condition not met"}

Query :: Form field: reverse-splicing fitness at least 0.008? Entry: C82U A120G A145G C150A C169A U176C
Result :: Condition met

Query :: Say whether C82U A111G A120G A145G C169U U176G shows reverse-splicing fitness of 0.008 or more.
Result :: Condition not met
